Molecular target: human FPR2 (Homo sapiens (Human), UniProt P25090)
Sequence (P25090 whole entry): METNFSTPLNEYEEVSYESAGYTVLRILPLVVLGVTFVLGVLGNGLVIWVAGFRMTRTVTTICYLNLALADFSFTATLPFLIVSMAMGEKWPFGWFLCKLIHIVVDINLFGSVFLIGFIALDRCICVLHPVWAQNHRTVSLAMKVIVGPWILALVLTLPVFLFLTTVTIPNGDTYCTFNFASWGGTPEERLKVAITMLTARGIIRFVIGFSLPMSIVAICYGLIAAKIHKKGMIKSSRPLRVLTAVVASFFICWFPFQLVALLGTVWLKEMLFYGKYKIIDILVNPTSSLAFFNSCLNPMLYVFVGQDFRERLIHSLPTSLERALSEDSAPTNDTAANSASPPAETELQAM
Test: FPR2 cyclic adenosine monophosphate (cAMP) assay
Conditions: CHO cells overexpressing human FPR2; forskolin 5 µM; inhibition of cAMP production; read-out: hFPR2 cAMP2 EC50
Method: N-formyl peptide receptors (FPRs) are a family of chemo attractant receptors that facilitate leukocyte response during inflammation. FPRs belong to the seven-transmembrane G protein-coupled receptor superfamily and are linked to inhibitory G-proteins (Gi). […] FPR2 and FPR1 Cyclic Adenosine Monophosphate (cAMP) Assays. […] The level of intracellular cAMP was determined using the HTRF HiRange cAMP assay reagent kit (Cisbio) according to manufacturer’s instruction. […]

MOLECULE: COc1cc(F)c([C@@H]2CN(c3cccn(CC(C)(CO)CO)c3=O)C(=O)[C@H]2NC(=O)c2ccc(OC(F)(F)F)cc2)c(F)c1 [Example 254]
UNITS OF MEASURE: nM
EC50: 7
--
MOLECULE: COc1cc(F)c([C@@H]2CN(c3cnn4c3OCCC4)C(=O)[C@H]2NC(=O)c2ccc(Cl)cc2)c(F)c1
UNITS OF MEASURE: nM
EC50: 43.7
--
MOLECULE: COc1cc(F)c([C@@H]2CN(c3nc(NC(C)=O)ccc3F)C(=O)[C@H]2NC(=O)c2ccc(OC(F)F)cc2)c(F)c1
UNITS OF MEASURE: nM
EC50: 3.8
--
MOLECULE: COc1cc(F)c([C@@H]2CN(c3cccn(C4CCOC4)c3=O)C(=O)[C@H]2NC(=O)c2ccc(OC(F)F)cc2)c(F)c1 (stereo partly shown) [Example 201]
UNITS OF MEASURE: nM
EC50: 5.3
--
MOLECULE: COc1cc(F)c([C@@H]2CN(c3ccccc3P(C)(C)=O)C(=O)[C@H]2NC(=O)c2ccc(OC(F)F)cc2)c(F)c1
UNITS OF MEASURE: nM
EC50: 10
--
MOLECULE: Cc1ccn(CC(F)F)c(=O)c1N1C[C@@H](c2ccc(Cl)cc2)[C@H](NC(=O)c2ccc(OC(F)(F)F)cc2)C1=O
UNITS OF MEASURE: nM
EC50: 5.1
--
MOLECULE: COc1cc(F)c([C@@H]2CN(c3cccn(CC(OC)C(F)(F)F)c3=O)C(=O)[C@H]2NC(=O)c2ccc(OC(F)F)cc2)c(F)c1 (stereo partly shown) [Example 161]
UNITS OF MEASURE: nM
EC50: 4.1
--
MOLECULE: COCC(CN)n1cccc(N2C[C@@H](c3c(F)cc(OC)cc3F)[C@H](NC(=O)c3ccc(OC(F)(F)F)cc3)C2=O)c1=O (stereo partly shown) [Example 194]
UNITS OF MEASURE: nM
EC50: 5.1
--
MOLECULE: COCC(C(=O)N(C)C)n1cccc(N2C[C@@H](c3ccc(Cl)cc3)[C@H](NC(=O)c3ccc(OC(F)F)cc3)C2=O)c1=O (stereo partly shown)
UNITS OF MEASURE: nM
EC50: 10
--
MOLECULE: COc1cc(F)c([C@@H]2CN(c3cccn(C4CC4)c3=O)C(=O)[C@H]2NC(=O)c2ccc(C(F)(F)F)cc2)c(F)c1
UNITS OF MEASURE: nM
EC50: 3.1
--
MOLECULE: COCCn1ccc(C)c(N2C[C@@H](c3ccc(OC)cc3)[C@H](NC(=O)c3ccc(OC(F)F)cc3)C2=O)c1=O
UNITS OF MEASURE: nM
EC50: 7.5
--
MOLECULE: COc1cc(F)c([C@@H]2CN(c3c(C)ccn(CC(O)C4CC4)c3=O)C(=O)[C@H]2NC(=O)c2ccc(OC(F)F)cc2)c(F)c1 (stereo partly shown) [Example 682]
UNITS OF MEASURE: nM
EC50: 15
--
MOLECULE: COc1cc(F)c([C@@H]2CN(c3c(C)ccn([C@H]4COC[C@@H]4O)c3=O)C(=O)[C@H]2NC(=O)c2ccc(OC(F)(F)F)cc2)c(F)c1
UNITS OF MEASURE: nM
EC50: 8.4

---

Target: human FPR1 (Homo sapiens (Human))
Sequence (P21462 whole entry): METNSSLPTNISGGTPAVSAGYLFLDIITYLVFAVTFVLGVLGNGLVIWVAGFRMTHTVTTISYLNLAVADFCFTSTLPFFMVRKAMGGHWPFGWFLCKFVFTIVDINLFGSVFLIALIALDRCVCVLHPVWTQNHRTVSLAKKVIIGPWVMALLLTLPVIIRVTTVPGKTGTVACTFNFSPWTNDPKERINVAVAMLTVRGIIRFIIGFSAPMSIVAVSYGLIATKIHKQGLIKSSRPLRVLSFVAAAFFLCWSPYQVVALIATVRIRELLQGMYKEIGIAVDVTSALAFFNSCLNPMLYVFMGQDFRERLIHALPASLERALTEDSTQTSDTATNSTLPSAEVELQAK
Experiment: FPR1 cyclic adenosine monophosphate (cAMP) assay
Details: CHO cells overexpressing human FPR1; forskolin 10 µM; inhibition of cAMP production; read-out: hFPR1 cAMP EC50
pEC50: −log10 of the molar value.

COMPOUND: COc1cc(F)c([C@H]2[C@H](NC(=O)c3ccc(OC(F)F)cc3)C(=O)N(c3cccc(C4CCNCC4)n3)[C@H]2C)c(F)c1
QUALIFIER: =
pEC50: 6.22
//
COMPOUND: COCC(C(=O)N1CC[C@@H](O)C1)n1cccc(N2C[C@@H](c3c(F)cc(OC)cc3F)[C@H](NC(=O)c3ccc(OC(F)F)cc3)C2=O)c1=O (stereo partly shown)
QUALIFIER: =
pEC50: 8.05
//
COMPOUND: CCn1nccc(N2C[C@@H](c3c(F)cc(OC)cc3F)[C@H](NC(=O)c3ccc(OC(F)(F)F)cc3)C2=O)c1=O
QUALIFIER: =
pEC50: 7.92
//
COMPOUND: COc1cc(F)c([C@@H]2CN(c3c(C)ccn(CC4CCOC4)c3=O)C(=O)[C@H]2NC(=O)c2ccc(OC(F)F)cc2)c(F)c1 (stereo partly shown) [Example 695]
QUALIFIER: =
pEC50: 8.40
//
COMPOUND: COc1ccc([C@@H]2CN(c3c(C)ccn(C4CCOC4)c3=O)C(=O)[C@H]2NC(=O)c2ccc(OC(F)(F)F)cc2)cc1 (stereo partly shown) [Example 704]
QUALIFIER: =
pEC50: 9.00
//
COMPOUND: COc1cc(N2CCN(C)CC2)nc(N2C[C@@H](c3c(F)cc(OC)cc3F)[C@H](NC(=O)c3ccc(OC(F)F)cc3)C2=O)c1
QUALIFIER: <
pEC50: 5.00
//
COMPOUND: COc1cc(F)c([C@@H]2CN(c3cccc(N4CCN(C)CC4)n3)C(=O)[C@H]2NC(=O)c2ccc(OC(F)F)cc2)c(F)c1
QUALIFIER: =
pEC50: 6.00
//
COMPOUND: COc1cc(F)c([C@@H]2CN(c3cccn(CCN4CCOCC4)c3=O)C(=O)[C@H]2NC(=O)c2ccc(OC(F)(F)F)cc2)c(F)c1
QUALIFIER: =
pEC50: 6.47
//
COMPOUND: COc1cc(F)c([C@@H]2CN(c3nccc(NCC(=O)NC4CC4)c3C(F)(F)F)C(=O)[C@H]2NC(=O)c2ccc(Cl)cc2)c(F)c1
QUALIFIER: =
pEC50: 6.25
//
COMPOUND: COc1cc(F)c([C@@H]2CN(c3cccc(C4CCCN(CCO)C4)n3)C(=O)[C@H]2NC(=O)c2ccc(OC(F)F)cc2)c(F)c1 (stereo partly shown) [Example 501]
QUALIFIER: =
pEC50: 5.60
//
COMPOUND: COCCn1c(C)ccc(N2C[C@@H](c3c(F)cc(OC)cc3F)[C@H](NC(=O)c3ccc(OC(F)F)cc3)C2=O)c1=O
QUALIFIER: =
pEC50: 7.22
//
COMPOUND: COc1ccc([C@@H]2CN(c3ccnn(CC(F)F)c3=O)C(=O)[C@H]2NC(=O)c2ccc(OC(F)(F)F)cc2)cc1
QUALIFIER: =
pEC50: 8.55
//
COMPOUND: COc1ccc([C@@H]2CN(c3cccn(CCC(F)(F)F)c3=O)C(=O)[C@H]2NC(=O)c2ccc(OC(F)F)cc2)c(F)c1
QUALIFIER: =
pEC50: 8.07

---

Target: human FPR2 (Homo sapiens (Human))
Assay: FPR2 cyclic adenosine monophosphate (cAMP) assay
Details: CHO cells overexpressing human FPR2; forskolin 5 µM; inhibition of cAMP production; read-out: hFPR2 cAMP2 EC50
Grouping key: EC50. Bins: low bin (below 3 nM), mid bin (3 nM to below 4 nM), high bin (4 nM or more)

MOLECULE: COc1cc(F)c([C@H]2[C@H](NC(=O)c3ccc(OC(F)F)cc3)C(=O)N(c3cccc(N4CC[C@H](O)C4)n3)[C@H]2C)c(F)c1
DISCRETE LABEL: low bin
--
MOLECULE: COc1cc(F)c([C@@H]2CN(c3c(C)ccn(C(F)(F)CO)c3=O)C(=O)[C@H]2NC(=O)c2ccc(OC(F)(F)F)cc2)c(F)c1 [Example 659]
DISCRETE LABEL: low bin
--
MOLECULE: COc1cc(N2C[C@@H]3C[C@H]2CN3C)nc(N2C(=O)[C@@H](NC(=O)c3ccc(OC(F)F)cc3)[C@H](c3c(F)cc(OC)cc3F)[C@@H]2C)c1
DISCRETE LABEL: low bin
--
MOLECULE: O=C(N[C@@H]1C(=O)N(c2cccn(CC(O)C(F)(F)F)c2=O)C[C@H]1c1ccc(Cl)cc1)c1ccc(OC(F)F)cc1 (stereo partly shown)
DISCRETE LABEL: low bin
--
MOLECULE: COc1cc(F)c([C@@H]2CN(c3cccc(C4CCN(C)CC4)n3)C(=O)[C@H]2NC(=O)c2ccc(OC(F)F)cc2)c(F)c1 [Example 536]
DISCRETE LABEL: low bin
--
MOLECULE: COc1cc(F)c([C@@H]2CN(c3c(C)ccn(CC4CCOC4)c3=O)C(=O)[C@H]2NC(=O)c2ccc(OC(F)(F)F)cc2)c(F)c1 (stereo partly shown)
DISCRETE LABEL: mid bin
--
MOLECULE: CCn1cccc(N2C[C@@H](c3c(F)cc(OC)cc3F)[C@H](NC(=O)c3ccc(Cl)cc3)C2=O)c1=O
DISCRETE LABEL: low bin
--
MOLECULE: COc1cc(F)c([C@@H]2CN(c3nc(N4CCN(C)CC4)ccc3C(F)F)C(=O)[C@H]2NC(=O)c2ccc(Cl)cc2)c(F)c1
DISCRETE LABEL: high bin
--
MOLECULE: COCCn1c2c(cc(N3C[C@@H](c4c(F)cc(OC)cc4F)[C@H](NC(=O)c4ccc(Cl)cc4)C3=O)c1=O)CCCC2
DISCRETE LABEL: mid bin
--
MOLECULE: COc1cc(F)c([C@@H]2CN(c3nc(Cl)ccc3C#N)C(=O)[C@H]2NC(=O)c2ccc(OC(F)F)cc2)c(F)c1
DISCRETE LABEL: high bin
--
MOLECULE: COc1cc(F)c([C@@H]2CN(c3c(C)ccn(C4CCOCC4)c3=O)C(=O)[C@H]2NC(=O)c2ccc(OC(F)(F)F)cc2)c(F)c1
DISCRETE LABEL: high bin
--
MOLECULE: CCn1cccc(N2C(=O)[C@@H](NC(=O)c3ccc(OC(F)(F)F)cc3)[C@H](c3c(F)cc(OC)cc3F)[C@@H]2C)c1=O
DISCRETE LABEL: low bin
